Please respond with reported MIC for every item in the list.
# Test system: P. aeruginosa GC 2214
# EXPERIMENTAL PROTOCOL: MIC, broth microdilution
# APPLIED CONDITIONS: Pseudomonas aeruginosa, GC2214, P. aeruginosa GC 2214; Water pre-incubation

State the recorded MIC for this entry: CCCCN(CC(=O)Nc1cc(N(C)C)c2c(c1O)C(=O)C1=C(O)[C@]3(O)C(=O)C(C(N)=O)=C(O)[C@@H](N(C)C)C3CC1C2)C(=O)OCOC(=O)c1ccc(C)cc1 (stereo partly drawn) [Example 3]
> 64 µg/mL

For CCCCN(CC(=O)Nc1cc(N(C)C)c2c(c1O)C(=O)C1=C(O)[C@]3(O)C(=O)C(C(N)=O)=C(O)[C@@H](N(C)C)[C@@H]3C[C@@H]1C2)C(=O)OCOC(=O)c1ccc(F)cc1 [Example 4] then?
> 64 µg/mL

For CCCN(CC(=O)Nc1cc(N(C)C)c2c(c1O)C(=O)C1=C(O)[C@]3(O)C(=O)C(C(N)=O)=C(O)[C@@H](N(C)C)[C@@H]3C[C@@H]1C2)C(=O)OCc1ccccc1 [Example 14] then?
> 64 µg/mL

----------
# Tested on: E. coli GC 2270
# EXPERIMENTAL PROTOCOL: MIC, broth microdilution
# APPLIED CONDITIONS: Escherichia coli, GC2270, read-out: MINIMAL INHIBITORY CONCENTRATION MIC, Human Serum
READOUT LABEL: MIC

Form field - read-out: MIC; system: E. coli GC 2270; submitted item: `CN(C)c1cc(NC(=O)CN(C(=O)OCOC(=O)C2CCCCC2)C(C)(C)C)c(O)c2c1C[C@H]1C[C@H]3[C@H](N(C)C)C(O)=C(C(N)=O)C(=O)[C@@]3(O)C(O)=C1C2=O`
8 µg/mL

For `Cc1cc(C)cc(C(=O)OCOC(=O)N(CC(=O)Nc2cc(N(C)C)c3c(c2O)C(=O)C2=C(O)[C@]4(O)C(=O)C(C(N)=O)=C(O)[C@@H](N(C)C)[C@@H]4C[C@@H]2C3)C(C)(C)C)c1` then?
32 µg/mL

For `CC(C)CC(=O)OCOC(=O)N(CC(=O)Nc1cc(N(C)C)c2c(c1O)C(=O)C1=C(O)[C@]3(O)C(=O)C(C(N)=O)=C(O)[C@@H](N(C)C)[C@@H]3C[C@@H]1C2)C(C)(C)C` then?
8 µg/mL

For `CCCCOC(=O)N(CC(=O)Nc1cc(N(C)C)c2c(c1O)C(=O)C1=C(O)[C@]3(O)C(=O)C(C(N)=O)=C(O)[C@@H](N(C)C)[C@@H]3C[C@@H]1C2)C(C)(C)C` then?
> 64 µg/mL

For `CCC(=O)OCOC(=O)N(CC(=O)Nc1cc(N(C)C)c2c(c1O)C(=O)C1=C(O)[C@]3(O)C(=O)C(C(N)=O)=C(O)[C@@H](N(C)C)[C@@H]3C[C@@H]1C2)C(C)(C)C` then?
4 µg/mL

----------
Please respond with reported MIC for every item in the list.
# Test system: E. coli GC 2235
# EXPERIMENTAL PROTOCOL: MIC, broth microdilution
# APPLIED CONDITIONS: Escherichia coli, GC2235, read-out: MINIMAL INHIBITORY CONCENTRATION MIC, Water
Entry rule: numbers only, all in µg/mL.

State the recorded MIC for this entry: `CN(C)c1cc(NC(=O)CN(C(=O)OCOC(=O)C2CCCCC2)C(C)(C)C)c(O)c2c1C[C@H]1C[C@H]3[C@H](N(C)C)C(O)=C(C(N)=O)C(=O)[C@@]3(O)C(O)=C1C2=O`
32

For `CN(C)c1cc(NC(=O)CN(C(=O)OCOC(=O)c2ccc(F)cc2)C(C)(C)C)c(O)c2c1C[C@H]1C[C@H]3[C@H](N(C)C)C(O)=C(C(N)=O)C(=O)[C@@]3(O)C(O)=C1C2=O` then?
4

For `CCC(=O)OCOC(=O)N(CC(=O)Nc1cc(N(C)C)c2c(c1O)C(=O)C1=C(O)[C@]3(O)C(=O)C(C(N)=O)=C(O)[C@@H](N(C)C)[C@@H]3C[C@@H]1C2)C(C)(C)C` then?
8

For `CCCCCCC(=O)OCOC(=O)N(CC(=O)Nc1cc(N(C)C)c2c(c1O)C(=O)C1=C(O)[C@]3(O)C(=O)C(C(N)=O)=C(O)[C@@H](N(C)C)[C@@H]3C[C@@H]1C2)C(C)(C)C` then?
32

----------
# System: E. coli
# EXPERIMENTAL PROTOCOL: Range of MIC for E. coli strains
# APPLIED CONDITIONS: Escherichia coli, read-out: Minimum inhibitory concentration (MIC), E. coli (mouse serum)
READOUT LABEL: MIC

State the recorded MIC for this entry: CCCCN(CC(=O)Nc1cc(N(C)C)c2c(c1O)C(=O)C1=C(O)[C@]3(O)C(=O)C(C(N)=O)=C(O)[C@@H](N(C)C)C3CC1C2)C(=O)OCOC(=O)c1ccc(C)cc1 (some centres unmarked)
1 to 2 µg/mL

For `CCCCCCC(=O)OCOC(=O)N(CCCC)CC(=O)Nc1cc(N(C)C)c2c(c1O)C(=O)C1=C(O)[C@]3(O)C(=O)C(C(N)=O)=C(O)[C@@H](N(C)C)[C@@H]3C[C@@H]1C2` then?
0.5 to 2 µg/mL

For `CCCCN(CC(=O)Nc1cc(N(C)C)c2c(c1O)C(=O)C1=C(O)[C@]3(O)C(=O)C(C(N)=O)=C(O)[C@@H](N(C)C)[C@@H]3C[C@@H]1C2)C(=O)OCOC(=O)Cc1ccccc1` then?
0.5 to 2 µg/mL

For `CCCCN(CC(=O)Nc1cc(N(C)C)c2c(c1O)C(=O)C1=C(O)[C@]3(O)C(=O)C(C(N)=O)=C(O)[C@@H](N(C)C)[C@@H]3C[C@@H]1C2)C(=O)OCOC(=O)CC(C)(C)C` then?
2 to 8 µg/mL

For `CCCCN(CC(=O)Nc1cc(N(C)C)c2c(c1O)C(=O)C1=C(O)[C@]3(O)C(=O)C(C(N)=O)=C(O)[C@@H](N(C)C)[C@@H]3C[C@@H]1C2)C(=O)OCOC(=O)C1CCC1` then?
0.5 to 2 µg/mL

----------
# Test system: Staph.
# EXPERIMENTAL PROTOCOL: Range of MIC for Staph. strains, including MRSA
# APPLIED CONDITIONS: Staphylococcus aureus, MRSA, read-out: Range of MIC, Staph (Water)
READOUT LABEL: MIC

Form field - read-out: MIC; system: Staph.; submitted item: `CCCN(CC(=O)Nc1cc(N(C)C)c2c(c1O)C(=O)C1=C(O)[C@]3(O)C(=O)C(C(N)=O)=C(O)[C@@H](N(C)C)[C@@H]3C[C@@H]1C2)C(=O)OCC`
4 to 16 µg/mL

For `CN(C)c1cc(NC(=O)CN(C(=O)OCOC(=O)C2CCCCC2)C(C)(C)C)c(O)c2c1C[C@H]1C[C@H]3[C@H](N(C)C)C(O)=C(C(N)=O)C(=O)[C@@]3(O)C(O)=C1C2=O` then?
0.25 to 4 µg/mL

For `CCC(CC)C(=O)OCOC(=O)Nc1cc(N(C)C)c2c(c1O)C(=O)C1=C(O)[C@]3(O)C(=O)C(C(N)=O)=C(O)[C@@H](N(C)C)[C@@H]3C[C@@H]1C2` then?
4 to 16 µg/mL

For CCCN(CC(=O)Nc1cc(N(C)C)c2c(c1O)C(=O)C1=C(O)[C@]3(O)C(=O)C(C(N)=O)=C(O)[C@@H](N(C)C)C3CC1C2)C(=O)OCc1oc(=O)oc1-c1ccc(OC)cc1 (some centres unmarked) then?
1 to 16 µg/mL

For CCCCN(CC(=O)Nc1cc(N(C)C)c2c(c1O)C(=O)C1=C(O)[C@]3(O)C(=O)C(C(N)=O)=C(O)[C@@H](N(C)C)C3CC1C2)C(=O)OCOC(=O)C1CCCCC1 (some centres unmarked) then?
0.25 to 4 µg/mL

----------
# Tested on: E. coli GC 2272
# EXPERIMENTAL PROTOCOL: MIC, broth microdilution
# APPLIED CONDITIONS: Escherichia coli, GC2272, read-out: MINIMAL INHIBITORY CONCENTRATION MIC, pre-incubated in Water
READOUT LABEL: MIC (µg/mL)
Entry rule: numbers only, all in µg/mL.

State the recorded MIC for this entry: `CCCN(CC(=O)Nc1cc(N(C)C)c2c(c1O)C(=O)C1=C(O)[C@]3(O)C(=O)C(C(N)=O)=C(O)[C@@H](N(C)C)[C@@H]3C[C@@H]1C2)C(=O)OCOC(=O)c1cc(C)cc(C)c1`
64

For `CCCN(CC(=O)Nc1cc(N(C)C)c2c(c1O)C(=O)C1=C(O)[C@]3(O)C(=O)C(C(N)=O)=C(O)[C@@H](N(C)C)[C@@H]3C[C@@H]1C2)C(=O)OCOC(=O)c1cccs1` then?
64
